Each entry below carries its recorded pEC50.
# system_under_test: human thyroid receptor beta ligand-binding domain (THRβ) (Homo sapiens, UniProt P10828)
# Sequence (P10828 217-461 limits assumed): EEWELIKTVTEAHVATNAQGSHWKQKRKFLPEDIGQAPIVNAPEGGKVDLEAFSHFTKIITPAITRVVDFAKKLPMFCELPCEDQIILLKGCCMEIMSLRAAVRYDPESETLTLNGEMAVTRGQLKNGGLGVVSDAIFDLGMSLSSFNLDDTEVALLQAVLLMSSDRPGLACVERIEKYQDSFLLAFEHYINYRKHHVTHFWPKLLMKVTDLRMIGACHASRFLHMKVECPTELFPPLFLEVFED
# method_description: THR Biochemical Assay (Assay 1): TR-FRET thyroid receptor beta coactivator assay
# condition_parameters: TR-FRET coactivator recruitment, THRβ LBD, agonist EC50; read-out: Activity category Assay 1 THRβ (EC50)
pEC50: −log10 of the molar value.

compound | value_observed
Cc1cc(OCC(=O)O)cc(C)c1Cc1ccc2[nH]cc(C(C)C)c2n1 [Compound 2] | > 7.30
Cc1cc(OCC(=O)O)c(C)c(C)c1Cc1ccc2[nH]cc(C(C)C)c2n1 [Compound 1] | > 7.30
Cc1nc(OCC(=O)O)c(C)c(C)c1Cc1ccc2[nH]cc(C(C)C)c2n1 [Compound 6] | 6.60 to 7.30
Cc1cc(OCc2nn[nH]n2)c(C)c(C)c1Cc1ccc2[nH]cc(C(C)C)c2n1 [Compound 10] | > 7.30
CCOC(=O)C(=O)Nc1cc(C)c(Cc2ccc3[nH]cc(C(C)C)c3n2)c(C)c1 [Compound 5] | > 7.30
Cc1cc(NC(=O)C(=O)O)cc(C)c1Cc1ccc2[nH]cc(C(C)C)c2n1 [Compound 4] | > 7.30
Cc1cc(OC(C)(C)C(=O)O)c(C)c(C)c1Cc1ccc2[nH]cc(C(C)C)c2n1 [Compound 8] | > 7.30
Cc1cc(OCc2noc(=O)[nH]2)c(C)c(C)c1Cc1ccc2[nH]cc(C(C)C)c2n1 [Compound 11] | > 7.30
Cc1cc(OC(F)C(=O)O)c(C)c(C)c1Cc1ccc2[nH]cc(C(C)C)c2n1 (centres unmarked) [Compound 9] | > 7.30
Cc1cc(OC(C)C(=O)O)c(C)c(C)c1Cc1ccc2[nH]cc(C(C)C)c2n1 (centres unmarked) [Compound 7] | 4.60 to 6.00

Q) Output measured pEC50 for this item: Cc1cc(NC(=O)c2noc(=O)[nH]2)cc(C)c1Cc1ccc2[nH]cc(C(C)C)c2n1 [Compound 3]
A) > 7.30
